System: HepG2
Experiment: Cytotoxicity against human HepG2 cells after 2 days by alamar blue assay
Type: functional, cell-based
Settings: HepG2, 48 h

>  <smiles representation>
O=c1[nH]cc(F)c(=O)[nH]1

>  <IC50>
76.7 µM

$$$$
>  <smiles representation>
COc1cc(OC)c2c(c1)C(=O)c1cc(C)c(Cn3cc(F)c(=O)n(Cc4cccc(F)c4)c3=O)c(OC)c1C2=O

>  <IC50>
> 100 µM

$$$$
>  <smiles representation>
COc1cc(OC)c2c(c1)C(=O)c1cc(C)c(Cn3cc(F)c(=O)[nH]c3=O)c(OC)c1C2=O

>  <IC50>
> 100 µM

$$$$
>  <smiles representation>
COc1cc(OC)c2c(c1)C(=O)c1cc(C)c(Cn3cc(F)c(=O)n(C)c3=O)c(OC)c1C2=O

>  <IC50>
> 100 µM

$$$$
>  <smiles representation>
CCn1c(=O)c(F)cn(Cc2c(C)cc3c(c2OC)C(=O)c2c(OC)cc(OC)cc2C3=O)c1=O

>  <IC50>
> 100 µM

$$$$
>  <smiles representation>
CCCCn1c(=O)c(F)cn(Cc2c(C)cc3c(c2OC)C(=O)c2c(OC)cc(OC)cc2C3=O)c1=O

>  <IC50>
> 100 µM

$$$$
>  <smiles representation>
C/C=C/Cn1c(=O)c(F)cn(Cc2c(C)cc3c(c2OC)C(=O)c2c(OC)cc(OC)cc2C3=O)c1=O

>  <IC50>
> 100 µM

$$$$
>  <smiles representation>
Cc1cc(O)c2c(c1)C(=O)c1cc(O)cc(O)c1C2=O

>  <IC50>
13.1 µM

$$$$
>  <smiles representation>
COc1cc(OC)c2c(c1)C(=O)c1cc(C)c(Cn3cc(F)c(=O)n(Cc4ccccc4)c3=O)c(OC)c1C2=O

>  <IC50>
> 100 µM

$$$$
>  <smiles representation>
COc1cc(OC)c2c(c1)C(=O)c1cc(C)c(Cn3cc(F)c(=O)n(Cc4ccccc4C#N)c3=O)c(OC)c1C2=O

>  <IC50>
39.9 µM

$$$$
>  <smiles representation>
COc1cc(OC)c2c(c1)C(=O)c1cc(C)c(Cn3cc(F)c(=O)n(Cc4ccccc4F)c3=O)c(OC)c1C2=O

>  <IC50>
> 100 µM

$$$$
>  <smiles representation>
COc1cc(OC)c2c(c1)C(=O)c1cc(C)c(Cn3cc(F)c(=O)n(CC=C(C)C)c3=O)c(OC)c1C2=O

>  <IC50>
> 100 µM

$$$$
>  <smiles representation>
COc1cc(OC)c2c(c1)C(=O)c1cc(C)c(Cn3cc(F)c(=O)n(CCc4ccccc4)c3=O)c(OC)c1C2=O

>  <IC50>
68.6 µM

$$$$
>  <smiles representation>
COc1cc(OC)c2c(c1)C(=O)c1cc(C)c(Cn3cc(F)c(=O)n(Cc4ccc5c(c4)OCO5)c3=O)c(OC)c1C2=O

>  <IC50>
91 µM

$$$$

###

Assay: Cytotoxicity against human HO8910 cells after 2 days by alamar blue assay
Assay type: functional, cell-based
Settings: HO-8910, 48 h
pIC50: −log10 of the molar value.
property measured: pIC50

>  <smiles representation>
COc1cc(OC)c2c(c1)C(=O)c1cc(C)c(Cn3cc(F)c(=O)n(Cc4ccccc4)c3=O)c(OC)c1C2=O

>  <cmp>
=

>  <quantitative result>
4.35

$$$$
>  <smiles representation>
COc1cc(OC)c2c(c1)C(=O)c1cc(C)c(Cn3cc(F)c(=O)n(Cc4ccccc4F)c3=O)c(OC)c1C2=O

>  <cmp>
=

>  <quantitative result>
4.04

$$$$
>  <smiles representation>
CCn1c(=O)c(F)cn(Cc2c(C)cc3c(c2OC)C(=O)c2c(OC)cc(OC)cc2C3=O)c1=O

>  <cmp>
<

>  <quantitative result>
4.00

$$$$
>  <smiles representation>
COc1cc(OC)c2c(c1)C(=O)c1cc(C)c(Cn3cc(F)c(=O)n(Cc4ccc5c(c4)OCO5)c3=O)c(OC)c1C2=O

>  <cmp>
<

>  <quantitative result>
4.00

$$$$

###

Experiment: Cytotoxicity against human HO8910 cells after 2 days by alamar blue assay
Type: functional, cell-based
Details: HO-8910, 48 h
# reported IC50; entries follow

>  <compound>
COc1cc(OC)c2c(c1)C(=O)c1cc(C)c(Cn3cc(F)c(=O)[nH]c3=O)c(OC)c1C2=O

>  <cmp>
>

>  <IC50 [µM]>
100

$$$$
>  <compound>
CCCCn1c(=O)c(F)cn(Cc2c(C)cc3c(c2OC)C(=O)c2c(OC)cc(OC)cc2C3=O)c1=O

>  <cmp>
>

>  <IC50 [µM]>
100

$$$$
>  <compound>
COc1cc(OC)c2c(c1)C(=O)c1cc(C)c(Cn3cc(F)c(=O)n(Cc4ccccc4C#N)c3=O)c(OC)c1C2=O

>  <cmp>
=

>  <IC50 [µM]>
22.6

$$$$
>  <compound>
O=c1[nH]cc(F)c(=O)[nH]1 [FLUOROURACIL]

>  <cmp>
=

>  <IC50 [µM]>
85.5

$$$$
>  <compound>
COc1cc(OC)c2c(c1)C(=O)c1cc(C)c(Cn3cc(F)c(=O)n(Cc4cccc(F)c4)c3=O)c(OC)c1C2=O

>  <cmp>
>

>  <IC50 [µM]>
100

$$$$
>  <compound>
C/C=C/Cn1c(=O)c(F)cn(Cc2c(C)cc3c(c2OC)C(=O)c2c(OC)cc(OC)cc2C3=O)c1=O

>  <cmp>
>

>  <IC50 [µM]>
100

$$$$
>  <compound>
COc1cc(OC)c2c(c1)C(=O)c1cc(C)c(Cn3cc(F)c(=O)n(CCc4ccccc4)c3=O)c(OC)c1C2=O

>  <cmp>
=

>  <IC50 [µM]>
11.6

$$$$
>  <compound>
COc1cc(OC)c2c(c1)C(=O)c1cc(C)c(Cn3cc(F)c(=O)n(C)c3=O)c(OC)c1C2=O

>  <cmp>
>

>  <IC50 [µM]>
100

$$$$
>  <compound>
COc1cc(OC)c2c(c1)C(=O)c1cc(C)c(Cn3cc(F)c(=O)n(CC=C(C)C)c3=O)c(OC)c1C2=O

>  <cmp>
>

>  <IC50 [µM]>
100

$$$$
>  <compound>
Cc1cc(O)c2c(c1)C(=O)c1cc(O)cc(O)c1C2=O [EMODIN]

>  <cmp>
=

>  <IC50 [µM]>
16

$$$$

###

Experiment: Ratio of compound IC50 to emodin IC50 for human HEK293 cells after 2 days by alamar blue assay
Type: ADME, cell-based
Conditions: read-out: Ratio IC50
property measured: selectivity ratio at 48 h

>  <smiles representation>
COc1cc(OC)c2c(c1)C(=O)c1cc(C)c(Cn3cc(F)c(=O)n(Cc4ccccc4C#N)c3=O)c(OC)c1C2=O

>  <result>
23

$$$$
